- method_summary: Photophysical measurements (absorption, emission, lifetime, quantum yield) in diluted solutions
- Format: physicochemical
- reported_conditions: DCM, aerated; versus Ru(bpy)3^2+ in water (φr = 0.028)
Consider the following compounds; for each one, report its Φaer, quantum yield.
Answers are plain numbers.

Below, each entry is followed by its recorded Φaer, quantum yield result.
compound	Φaer, quantum yield
N#Cc1ccc(-c2ccc3[n+](c2)[Ir]24([c]5ccccc5-c5cccc[n+]52)([c]2ccccc2-c2cccc[n+]24)[n]2nnnc2-3)cc1 [[Ir(ppy)2(TzPyPhCN)]]	0.023
C[n+]1nc2[n](n1)[Ir]13([c]4ccccc4-c4cccc[n+]41)([c]1ccccc1-c1cccc[n+]13)[n+]1cc(C#N)ccc1-2 [[Ir(ppy)2(MeTzPyCN)]^+]	0.012

For the next question, use this compound.
Exercise: Sample C[n+]1nc2[n](n1)[Ir]13([c]4ccccc4-c4cccc[n+]41)([c]1ccccc1-c1cccc[n+]13)[n+]1ccc3ccccc3c1-2 [[Ir(ppy)2(MeTziQn)]^+] — what was its Φaer, quantum yield?
Key: 0.049
